Source of measurements: paper PMC6152180

A collection of molecules and their measured viability at 48 h, 10 µM
experiment: in vitro; settings: human
The response must be a number in % with no trailing unit.

Given COc1ccc(C2CC(=O)c3c(O)cc(OCC(=O)NCCc4ccc(F)cc4)cc3O2)cc1O (stereo not shown) , state its recorded viability at 48 h, 10 µM.
97.2

Given COc1ccc(C2CC(=O)c3c(O)cc(OCC(=O)NCc4ccc(Br)cc4)cc3O2)cc1O (stereo not shown) , state its recorded viability at 48 h, 10 µM.
99.5

Given COc1ccc(C2CC(=O)c3c(O)cc(OCC(=O)NCCc4cccc(Cl)c4)cc3O2)cc1O (stereo not shown) , state its recorded viability at 48 h, 10 µM.
95.8

---

molecular target: BuChE (Equus caballus); construct: purchased Aladdin B128570-2KU; host or cells: equine serum; assay: biochemical; conditions: BuChE from equine serum; means ± SEM of three experiments; read-out: BuChE Inhibition, (IC50)
Sequence (P81908 whole entry): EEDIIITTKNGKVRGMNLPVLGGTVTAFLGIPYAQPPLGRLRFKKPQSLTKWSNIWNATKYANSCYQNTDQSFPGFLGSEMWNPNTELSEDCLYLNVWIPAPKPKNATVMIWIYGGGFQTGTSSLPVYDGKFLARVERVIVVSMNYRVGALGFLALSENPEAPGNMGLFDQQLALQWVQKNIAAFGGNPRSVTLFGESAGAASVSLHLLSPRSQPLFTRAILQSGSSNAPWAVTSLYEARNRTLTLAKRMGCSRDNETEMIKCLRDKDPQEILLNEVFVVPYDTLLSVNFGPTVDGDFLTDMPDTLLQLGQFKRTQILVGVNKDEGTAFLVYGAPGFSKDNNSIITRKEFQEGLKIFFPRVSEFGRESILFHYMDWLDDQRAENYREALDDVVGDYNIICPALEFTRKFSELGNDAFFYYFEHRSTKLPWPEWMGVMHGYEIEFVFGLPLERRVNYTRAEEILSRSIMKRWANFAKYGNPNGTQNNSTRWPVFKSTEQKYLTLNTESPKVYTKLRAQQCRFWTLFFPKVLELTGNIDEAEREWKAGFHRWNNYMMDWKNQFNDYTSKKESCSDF
assay.metric: pIC50
In textbook form, pIC50 equals minus log to base ten of the concentration in mol/L.

Sample records with pIC50:
INSERT INTO measurements (molecule, target_or_test_system, observed_measurement) VALUES
  ('COc1ccc(C2CC(=O)c3c(O)cc(OCC(=O)NCc4ccccc4F)cc3O2)cc1O (stereo not shown)', 'BuChE (Equus caballus)', 5.55),
  ('COc1ccc(C2CC(=O)c3c(O)cc(OCC(=O)NCCc4ccc(F)cc4)cc3O2)cc1O (stereo not shown)', 'BuChE (Equus caballus)', 5.65),
  ('COc1ccc(C2CC(=O)c3c(O)cc(OCC(=O)NCc4ccc(F)cc4)cc3O2)cc1O (stereo not shown)', 'BuChE (Equus caballus)', 5.68);

// next entry
Given COc1ccc(C2CC(=O)c3c(O)cc(OCC(=O)NCc4ccccc4OC)cc3O2)cc1O (stereo not shown) , state its recorded pIC50.
5.70

---

test: in vitro; conditions: human
A collection of compounds and their measured viability at 48 h, 100 µM
The response must be a number in % with no trailing unit.

Given COc1ccc(C2CC(=O)c3c(O)cc(OCC(=O)NCc4ccccc4OC)cc3O2)cc1O (centres unmarked) , state its recorded viability at 48 h, 100 µM.
55

Given COc1ccc(C2CC(=O)c3c(O)cc(OCC(=O)NCc4ccc(F)cc4)cc3O2)cc1O (centres unmarked) , state its recorded viability at 48 h, 100 µM.
58.8

Given COc1ccc(C2CC(=O)c3c(O)cc(OCC(=O)NCc4ccccc4)cc3O2)cc1O (centres unmarked) , state its recorded viability at 48 h, 100 µM.
63.2

Given COc1ccc(C2CC(=O)c3c(O)cc(OCC(=O)NCc4ccccc4Cl)cc3O2)cc1O (centres unmarked) , state its recorded viability at 48 h, 100 µM.
70.8

---

target: AChE (Electrophorus electricus, UniProt O42275); construct: purchased Sigma-Aldrich C3389-2KU; test: Kinetic characterization of AChE inhibition (Lineweaver-Burk plot); assay type: biochemical; conditions: Lineweaver–Burk plots; superscript b not defined; read-out: Ki b
Sequence (O42275 24-633): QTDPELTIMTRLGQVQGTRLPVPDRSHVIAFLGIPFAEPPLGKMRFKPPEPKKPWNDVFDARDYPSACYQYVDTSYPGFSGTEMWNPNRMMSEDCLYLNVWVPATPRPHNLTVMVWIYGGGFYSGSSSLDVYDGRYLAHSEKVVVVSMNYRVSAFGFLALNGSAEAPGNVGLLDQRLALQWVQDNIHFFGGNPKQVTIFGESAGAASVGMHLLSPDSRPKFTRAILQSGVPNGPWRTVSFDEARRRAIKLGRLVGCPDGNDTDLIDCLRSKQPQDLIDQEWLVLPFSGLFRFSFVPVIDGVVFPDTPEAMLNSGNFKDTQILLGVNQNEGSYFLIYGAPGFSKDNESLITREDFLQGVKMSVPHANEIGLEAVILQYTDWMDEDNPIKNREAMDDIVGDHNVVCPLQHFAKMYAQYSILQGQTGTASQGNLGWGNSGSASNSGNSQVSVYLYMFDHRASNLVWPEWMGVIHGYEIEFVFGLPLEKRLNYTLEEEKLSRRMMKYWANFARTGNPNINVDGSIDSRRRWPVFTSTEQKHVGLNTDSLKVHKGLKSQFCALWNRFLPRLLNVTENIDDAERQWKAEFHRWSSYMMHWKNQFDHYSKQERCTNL
assay.metric: Ki (nM)
The response must be a number in nM with no trailing unit.

Given COc1ccc([C@@H]2CC(=O)c3c(O)cc(OCC(=O)NCc4ccc(C(F)(F)F)cc4)cc3O2)cc1O , state its recorded Ki.
4.67

---

target: AChE (Electrophorus electricus); construct: purchased Sigma-Aldrich C3389-2KU; assay: biochemical; settings: AChE from electric eel; means ± SEM of three experiments; read-out: AchE Inhibition, (IC50)
Note to self: use criterion met only for IC50 readings below 20 nM; a reading exactly at 20 nM still gets criterion not met.

Would you please look over these solved cases?
INSERT INTO results (molecule, group_label) VALUES
  ('COc1ccc(C2CC(=O)c3c(O)cc(OCC(=O)NCc4ccc(Br)cc4)cc3O2)cc1O (centres unmarked)', 'criterion met'),
  ('COc1ccc(C2CC(=O)c3c(O)cc(OCC(=O)NCCc4ccc(Br)cc4)cc3O2)cc1O (centres unmarked)', 'criterion met'),
  ('COc1ccc(C2CC(=O)c3c(O)cc(OCC(=O)NCc4ccccc4Cl)cc3O2)cc1O (centres unmarked)', 'criterion met'),
  ('COc1ccc(C2CC(=O)c3c(O)cc(OCC(=O)NCCc4ccc(Cl)cc4)cc3O2)cc1O (centres unmarked)', 'criterion met'),
  ('COc1ccc(C2CC(=O)c3c(O)cc(OCC(=O)NCc4ccncc4)cc3O2)cc1O (centres unmarked)', 'criterion not met');

Determine if COc1ccc(C2CC(=O)c3c(O)cc(OCC(=O)NCCc4cccc(Cl)c4)cc3O2)cc1O (centres unmarked) shows IC50 strictly lower than 20 nM.
criterion met

Determine if COc1ccc(C2CC(=O)c3c(O)cc(OCC(=O)NCc4ccco4)cc3O2)cc1O (centres unmarked) shows IC50 strictly lower than 20 nM.
criterion not met

Determine if COc1ccc([C@@H]2CC(=O)c3c(O)cc(OCC(=O)NCc4ccc(C(F)(F)F)cc4)cc3O2)cc1O shows IC50 strictly lower than 20 nM.
criterion met

Determine if COc1ccc(C2CC(=O)c3c(O)cc(OCC(=O)NCc4ccccc4)cc3O2)cc1O (centres unmarked) shows IC50 strictly lower than 20 nM.
criterion not met

---

A collection of compounds and their measured pIC50
target: BuChE (Equus caballus); construct: purchased Aladdin B128570-2KU; host or cells: equine serum; experiment: biochemical; settings: BuChE from equine serum; means ± SEM of three experiments; read-out: BuChE Inhibition, (IC50)
In textbook form, pIC50 equals minus log to base ten of the concentration in mol/L.

Sample records with pIC50:
INSERT INTO assay_data (compound, target_or_test_system, assay_metric, observed_measurement) VALUES
  ('COc1ccc(C2CC(=O)c3c(O)cc(OCC(=O)NCCc4ccccc4F)cc3O2)cc1O (centres unmarked) [Compound 4q]', 'BuChE (Equus caballus)', 'pIC50', 5.65),
  ('COc1ccc(C2CC(=O)c3c(O)cc(OCC(=O)NCCc4ccc(Cl)cc4)cc3O2)cc1O (centres unmarked) [Compound 4m]', 'BuChE (Equus caballus)', 'pIC50', 5.47),
  ('COc1ccc(C2CC(=O)c3c(O)cc(OCC(=O)NCc4ccc(Br)cc4)cc3O2)cc1O (centres unmarked) [Compound 4d]', 'BuChE (Equus caballus)', 'pIC50', 5.67),
  ('COc1ccc(C2CC(=O)c3c(O)cc(OCC(=O)NCCc4ccccc4Cl)cc3O2)cc1O (centres unmarked) [Compound 4p]', 'BuChE (Equus caballus)', 'pIC50', 5.46),
  ('COc1ccc(C2CC(=O)c3c(O)cc(OCC(=O)NCc4ccncc4)cc3O2)cc1O (centres unmarked) [Compound 4s]', 'BuChE (Equus caballus)', 'pIC50', 5.73),
  ('COc1ccc(C2CC(=O)c3c(O)cc(OCC(=O)NCc4ccccc4)cc3O2)cc1O (centres unmarked) [Compound 4a]', 'BuChE (Equus caballus)', 'pIC50', 5.47),
  ('COc1ccc(C2CC(=O)c3c(O)cc(OCC(=O)NCc4ccc(Cl)cc4)cc3O2)cc1O (centres unmarked) [Compound 4b]', 'BuChE (Equus caballus)', 'pIC50', 5.46);

// next entry
Requested read-out pIC50, target or system BuChE (Equus caballus), entry COc1ccc(CCNC(=O)COc2cc(O)c3c(c2)OC(c2ccc(OC)c(O)c2)CC3=O)cc1 (centres unmarked) [Compound 4l]
5.55

---

target: AChE (Electrophorus electricus); construct: purchased Sigma-Aldrich C3389-2KU; assay: Kinetic characterization of AChE inhibition (Lineweaver-Burk plot); assay type: biochemical; settings: Lineweaver–Burk plots; superscript c not defined; read-out: Ki c
assay.metric: pKi
In textbook form, pKi equals minus log to base ten of the concentration in mol/L.

Given COc1ccc([C@@H]2CC(=O)c3c(O)cc(OCC(=O)NCc4ccc(C(F)(F)F)cc4)cc3O2)cc1O , state its recorded pKi.
8.37

---

experiment: in vitro; conditions: human
A collection of molecules and their measured viability at 48 h, 100 µM
The response must be a number in % with no trailing unit.

Sample records with viability at 48 h, 100 µM:
INSERT INTO assay_data (molecule, result_unit, observed_measurement) VALUES
  ('COc1ccc([C@@H]2CC(=O)c3c(O)cc(O)cc3O2)cc1O [Hesperetin, hesperetin]', '%', 67.3),
  ('COc1cccc(CNC(=O)COc2cc(O)c3c(c2)OC(c2ccc(OC)c(O)c2)CC3=O)c1 (stereo not shown) [Compound 4j]', '%', 70.8),
  ('COc1ccc(C2CC(=O)c3c(O)cc(OCC(=O)NCCc4cccc(Cl)c4)cc3O2)cc1O (stereo not shown) [Compound 4r]', '%', 62.2);

Given COc1ccc([C@@H]2CC(=O)c3c(O)cc(OCC(=O)NCc4ccc(C(F)(F)F)cc4)cc3O2)cc1O [Compound 4f] , state its recorded viability at 48 h, 100 µM.
62.3
